Origin of the recorded values: ChEMBL document CHEMBL1129952

Test system: L1210
Measurement Description: Inhibitory activity against murine L1210 leukemic cell lines.
Assay Context: Mus musculus
pIC50: −log10 of the molar value.
Please note: 1.0 applies when pIC50 is 6 or greater, and 0.0 applies otherwise.

- Compound: "C#CCN(Cc1ccc2nc(C)nc(O)c2c1)c1ccc([S+]([O-])c2ccccc2)c(F)c1 (stereo unspecified)"
  Target Or Test System: "L1210"
  Cat: 0.0
- Compound: "C#CCN(Cc1ccc2nc(C)nc(O)c2c1)c1ccc([S+]([O-])c2ccccc2C)cc1 (stereo unspecified)"
  Target Or Test System: "L1210"
  Cat: 0.0
- Compound: "C#CCN(Cc1ccc2nc(C)nc(O)c2c1)c1ccc(S(=O)(=O)c2ccccc2C)cc1"
  Target Or Test System: "L1210"
  Cat: 1.0
- Compound: "C#CCN(Cc1ccc2nc(C)nc(O)c2c1)c1ccc(S(=O)(=O)c2ccccc2Cl)cc1"
  Target Or Test System: "L1210"
  Cat: 1.0
- Compound: "C#CCN(Cc1ccc2nc(C)nc(O)c2c1)c1ccc(S(=O)(=O)c2ccccc2)c(Cl)c1"
  Target Or Test System: "L1210"
  Cat: 0.0
- Compound: "C#CCN(Cc1ccc2nc(C)nc(O)c2c1)c1ccc([S+]([O-])c2ccccc2Cl)cc1 (stereo unspecified)"
  Target Or Test System: "L1210"
  Cat: 0.0

* * *

System: L1210
Measurement Description: Inhibitory activity against murine L1210 leukemic cell lines.
Assay Context: Mus musculus

- Compound: "C#CCN(Cc1ccc2nc(C)nc(O)c2c1)c1ccc([S+]([O-])c2ccccc2C)c(C(F)(F)F)c1 (stereo not given)"
  Unit Info: "nM"
  IC50: 1000
- Compound: "C#CCN(Cc1ccc2nc(C)nc(O)c2c1)c1ccc([S+]([O-])c2ccccc2)c(C(F)(F)F)c1 (stereo not given)"
  Unit Info: "nM"
  IC50: 1100
- Compound: "C#CCN(Cc1ccc2nc(C)nc(O)c2c1)c1ccc(S(=O)(=O)c2ccccc2)c(F)c1"
  Unit Info: "nM"
  IC50: 1200
- Compound: "C#CCN(Cc1ccc2nc(C)nc(O)c2c1)c1ccc(S(=O)(=O)c2ccccc2C)c(C(F)(F)F)c1"
  Unit Info: "nM"
  IC50: 1000
- Compound: "C#CCN(Cc1ccc2nc(C)nc(O)c2c1)c1ccc([S+]([O-])c2ccccc2)c(Cl)c1 (stereo not given)"
  Unit Info: "nM"
  IC50: 1000
